# System: CCRF-CEM leukemia
# Experimental protocol: NCI tumour cell line growth inhibition, 48 h; in the data active = GI50 below about 0.43 µM; inactive = the rest
Classes used: True for active, False for inactive

compound=Nc1cc2c3c(cccc3c1)C(=O)N(CCN1CCCC1)C2=O subject_of_test="CCRF-CEM leukemia" class_assignment=False
compound=O=C1C(=O)c2c(nc3ccc(C(F)(F)F)cn23)-c2ccccc21 subject_of_test="CCRF-CEM leukemia" class_assignment=True
compound="[N-]=[N+]=CC(=O)CCC(N)C(=O)O (stereo not given)" subject_of_test="CCRF-CEM leukemia" class_assignment=False
compound=COc1ccc(-n2cc(-c3ccc(OC)c(OC)c3)[nH]c2=O)cc1 subject_of_test="CCRF-CEM leukemia" class_assignment=False
compound=CN1CCN(C2=NC(=O)/C(=C\c3ccc(N(C)C)cc3)S2)CC1 subject_of_test="CCRF-CEM leukemia" class_assignment=False
compound=O=c1c(Cc2ccc3c(c2)OCO3)nnc2sc(-c3cc(F)c(Cl)cc3Cl)nn12 subject_of_test="CCRF-CEM leukemia" class_assignment=False
compound=O=C(Nc1n[nH]c2cc(-c3cc(F)ccc3F)ccc12)C1CC1 subject_of_test="CCRF-CEM leukemia" class_assignment=False
compound=C[C@@]1(F)[C@H](O)[C@@H](CO)O[C@H]1n1ccc(=O)[nH]c1=O subject_of_test="CCRF-CEM leukemia" class_assignment=False
compound="COc1cc(N2C(=O)[C@H](Cl)C2c2ccc(SC)cc2)cc(OC)c1OC (stereo not given in full)" subject_of_test="CCRF-CEM leukemia" class_assignment=True
compound="CCCCCCCC(=O)OCC/C=C/C1OC1C1OC(=O)/C=C\\C=C\\C(=O)N(C(C)=O)C(=O)/C=C(/C)CCC2OC2C1OC(=O)NC(C)=O (stereo not given)" subject_of_test="CCRF-CEM leukemia" class_assignment=False

* * *

# System: NCI-H23 lung
# Experimental protocol: NCI tumour cell line growth inhibition, 48 h; in the data active = GI50 below about 0.43 µM; inactive = the rest
Outcome codes: 1 (active), 0 (inactive)

smiles_record=CCN(CC)C(=S)SSC(C)C class_assignment=0
smiles_record=C[C@@H]1C[C@@H]([C@H](O)CC2CC(=O)NC(=O)C2)C(=O)[C@@H](C)C1 class_assignment=1
smiles_record=NC(N)=N/N=C\c1ccc(OCc2ccccc2)cc1 class_assignment=0
smiles_record=O=C(Nc1n[nH]c2cc(-c3cc(F)ccc3F)ccc12)C1CC1 class_assignment=0
smiles_record=Nc1cc2c3c(cccc3c1)C(=O)N(CCN1CCCC1)C2=O class_assignment=0
smiles_record=Cn1c(COC(=O)NCCc2ccccn2)nc2c(N3CCOCC3)nc(Cl)nc21 class_assignment=0
smiles_record=CCOC(=O)NC(=S)N(CC(=O)c1cc(OC)c(OC)c(OC)c1)c1ccc(Cl)cc1 class_assignment=0
smiles_record=O=C1NC(=NCCc2ccc(Cl)cc2)S/C1=C\c1ccc2ncccc2c1 class_assignment=0
smiles_record=CC(C)C[C@@H](N)[C@@H](O)C(=O)N[C@H](C(=O)N[C@H](C(=O)N[C@@H](CC(=O)O)C(=O)O)C(C)C)C(C)C class_assignment=0
smiles_record=O=C1C(=O)c2c(nc3ccc(C(F)(F)F)cn23)-c2ccccc21 class_assignment=1

* * *

# System: HCT-116 colon
# Experimental protocol: NCI tumour cell line growth inhibition, 48 h
Property: TGI

compound=COc1cc2c(cc1C)NC(=O)/C2=C/c1ccnc2ccccc12 result="> 50 µM"
compound=Cc1ccc(C2=CC(=O)c3ccccc3C2=O)n1-c1ccccc1 result="> 100 µM"
compound="O=C1NC(O)c2cc3ccccc3cc2O1 (stereo not given)" result="51.1 µM"
compound="C=CCC(O[Si](C)(C)C(C)(C)C)c1cc(O[Si](C)(C)C(C)(C)C)ccc1OC (stereo not given)" result="> 100 µM"
compound="COC(=O)[C@]1(c2cc3ccccc3n2S(=O)(=O)c2ccccc2)CC2CN(C(=O)OCc3ccccc3)C1C1OC(C)(C)OC21 (stereo not given in full)" result="> 100 µM"
